biological target: membrane LIGHT without residues 81-84 (EL4-NC-LIGHT cells) (human, UniProt O43557 1-240); assay: cell-based or functional assay
Sequence (O43557 other isoform, or with tags, fused parts or gaps): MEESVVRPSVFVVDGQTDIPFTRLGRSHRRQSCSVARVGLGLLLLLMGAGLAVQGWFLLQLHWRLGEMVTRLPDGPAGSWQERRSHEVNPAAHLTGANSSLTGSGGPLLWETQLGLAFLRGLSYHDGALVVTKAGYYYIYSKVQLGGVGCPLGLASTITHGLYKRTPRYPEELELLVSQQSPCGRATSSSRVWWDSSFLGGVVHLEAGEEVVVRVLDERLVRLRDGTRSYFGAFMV
Experimental endpoint: IC50, inhibition of IL-8 secretion from HT-29 cells (EL4-NC-LIGHT cells)

Guide cases for IC50, inhibition of IL-8 secretion from HT-29 cells (EL4-NC-LIGHT cells), answers given:
3B04_var1 (antibody, human IgG4, V domains shown, human IgG4 (S241P, L248E, Kabat); also called 3B04 VL1VH1 (var1)) VH: QVQLVQSGAEVKKPGASVKVSCKASGYTFTDYEMHWVRQAPGQGLEWIGEIDPETGDTAYSQKFKGRATLTADKSTSTAYMEFSSLRSEDTAVYYCSRETDYFFDYWGQGTLVTVSS VL: DIQMTQSPSSLSASVGDRVTITCGASENIYGALNWYQRKQGKAPQLLIYGATNLADGVSSRFSGSGSGRDYTLTISSLQPEDFATYYCQNVLTTPWTFGQGTKLEIKR :: 50 pM
3B04_var8 (antibody, human IgG4, V domains shown, human IgG4 (S241P, L248E, Kabat); also called 3B04 VL2VH4 (var8)) VH: QVQLVQSGAEVKKPGASVKVSCKASGYTFTDYEMHWVRQAPGQGLEWMGEIDPETGDTAYAQKFQGRVTLTADKSTSTAYMELSSLRSEDTAVYYCSRETDYFFDYWGQGTLVTVSS VL: DIQMTQSPSSLSASVGDRVTITCGASENIYGALNWYQRKQGKAPKLLIYGATNLADGVPSRFSGSGSGRDYTLTISSLQPEDFATYYCQNVLTTPWTFGQGTKLEIKR :: 50 pM

From here, focus on the item given below.
stdin: Name the reported IC50, inhibition of IL-8 secretion from HT-29 cells (EL4-NC-LIGHT cells) value associated with the binder 3D12_var9 (antibody, human IgG4, V domains shown, human IgG4 (S241P, L248E, Kabat); also called 3D12 VL3VH1 (var9)) VH: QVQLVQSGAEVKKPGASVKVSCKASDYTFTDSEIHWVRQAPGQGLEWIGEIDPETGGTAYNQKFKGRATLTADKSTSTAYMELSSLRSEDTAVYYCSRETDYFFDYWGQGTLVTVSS VL: DIQMTQSPSSLSASVGDRVTITCGASENIYGALNWYQQKPGKAPKLLIYGATNLADGVPSRFSGSGSGRDYTLTISSLQPEDVATYYCQNVLSTPWTFGQGTKLEIKR
stdout: 710 pM

Source: patent US20230035798A1
